Target: EP2 (Homo sapiens (Human), UniProt P43116)
Sequence (P43116 whole entry): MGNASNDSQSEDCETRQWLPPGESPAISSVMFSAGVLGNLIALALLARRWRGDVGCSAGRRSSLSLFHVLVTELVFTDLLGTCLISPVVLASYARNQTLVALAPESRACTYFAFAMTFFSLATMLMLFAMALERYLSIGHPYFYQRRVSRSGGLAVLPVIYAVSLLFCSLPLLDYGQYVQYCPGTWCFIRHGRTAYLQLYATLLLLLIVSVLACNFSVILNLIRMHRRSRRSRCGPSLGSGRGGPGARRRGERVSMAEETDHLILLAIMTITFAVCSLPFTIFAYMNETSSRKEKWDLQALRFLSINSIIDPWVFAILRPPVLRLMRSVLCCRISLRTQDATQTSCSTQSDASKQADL
Assay: hEP2 cAMP assay (SF295 glioblastoma cells, HTRF cAMP)
Conditions: antagonistic activity
Excerpt: Human tumor cell lines expressing endogenously either EP4 or EP2 are used and cAMP accumulation in cells upon PGE2 stimulation is monitored. […] As a detection method for cAMP the HTRF (homogeneous time resolved fluorescence) Cisbio kit (HTRF cAMP dynamic 2 kit 20'000 tests Cisbio Cat. #62AM4PEC) was used, which is based on a competitive immunoassay using a Cryptate-labeled anti-cAMP antibody and d2-labeled cAMP. […]
VALUE_TYPE: IC50 (nM)

- COMPOUND: "Cc1c(CCNc2cc(-c3cc(OCCO)c(C(=O)O)s3)ncn2)ccc2ccccc12 [Ex 48]"
  TARGET_OF_ASSAY: "EP2 (Homo sapiens (Human), UniProt P43116)"
  VALUE_TYPE: "IC50"
  NUMERIC_READOUT: 66
- COMPOUND: "COc1cc2ccccc2c(F)c1CCNc1cc(-c2ccc(CC(=O)O)c(SC)c2)ncn1 [Ex 115]"
  TARGET_OF_ASSAY: "EP2 (Homo sapiens (Human), UniProt P43116)"
  VALUE_TYPE: "IC50"
  NUMERIC_READOUT: 682
- COMPOUND: "CCOc1cc(-c2cc(NCCc3c(F)c(F)c4cc(C)oc4c3OC)ncn2)ccc1C(=O)O [Ex 215]"
  TARGET_OF_ASSAY: "EP2 (Homo sapiens (Human), UniProt P43116)"
  VALUE_TYPE: "IC50"
  NUMERIC_READOUT: 650
- COMPOUND: "CCOc1cc(-c2cc(NCCc3cc4cccnc4c(C)c3Cl)ncn2)ccc1OCC(=O)O [Ex 179]"
  TARGET_OF_ASSAY: "EP2 (Homo sapiens (Human), UniProt P43116)"
  VALUE_TYPE: "IC50"
  NUMERIC_READOUT: 568
- COMPOUND: "CCOc1cc(-c2cc(NCCc3ccc4ccsc4c3)ncn2)ccc1OCC(=O)O [Ex 144]"
  TARGET_OF_ASSAY: "EP2 (Homo sapiens (Human), UniProt P43116)"
  VALUE_TYPE: "IC50"
  NUMERIC_READOUT: 751
- COMPOUND: "CCOc1cc(-c2cc(NCCc3cc4cccnc4c(F)c3Cl)ncn2)ccc1OCC(=O)O [Ex 301]"
  TARGET_OF_ASSAY: "EP2 (Homo sapiens (Human), UniProt P43116)"
  VALUE_TYPE: "IC50"
  NUMERIC_READOUT: 425
- COMPOUND: "CCOc1cc(-c2cc(NCCc3cc4ccoc4cc3OC)ncn2)ccc1OCC(=O)O [Ex 112]"
  TARGET_OF_ASSAY: "EP2 (Homo sapiens (Human), UniProt P43116)"
  VALUE_TYPE: "IC50"
  NUMERIC_READOUT: 69
- COMPOUND: "CCOc1cc(-c2cc(NCCc3cc4cccnc4c(F)c3Cl)ncn2)sc1C(=O)O [Ex 117]"
  TARGET_OF_ASSAY: "EP2 (Homo sapiens (Human), UniProt P43116)"
  VALUE_TYPE: "IC50"
  NUMERIC_READOUT: 61
- COMPOUND: "CCOc1cc2c(cc1CCNc1cc(-c3cc(OCC)c(C(=O)O)s3)ncn1)OCCO2 [Ex 39]"
  TARGET_OF_ASSAY: "EP2 (Homo sapiens (Human), UniProt P43116)"
  VALUE_TYPE: "IC50"
  NUMERIC_READOUT: 2
- COMPOUND: "COc1cc2sccc2cc1CCNc1cc(-c2ccc(C(=O)O)c(SC)c2)ncn1 [Ex 18]"
  TARGET_OF_ASSAY: "EP2 (Homo sapiens (Human), UniProt P43116)"
  VALUE_TYPE: "IC50"
  NUMERIC_READOUT: 4
- COMPOUND: "CCOc1cc(-c2cc(NCCc3ccc4sccc4c3)ncn2)ccc1C(C)C(=O)O (stereo not drawn) [Ex 161]"
  TARGET_OF_ASSAY: "EP2 (Homo sapiens (Human), UniProt P43116)"
  VALUE_TYPE: "IC50"
  NUMERIC_READOUT: 524
- COMPOUND: "CCOc1cc(-c2cc(NCCc3ccc4ccccc4c3C)ncn2)sc1/C=C/C(=O)O [Ex 130]"
  TARGET_OF_ASSAY: "EP2 (Homo sapiens (Human), UniProt P43116)"
  VALUE_TYPE: "IC50"
  NUMERIC_READOUT: 423
- COMPOUND: "CSc1cc(-c2cc(NCCc3cc4ccsc4cc3C#N)ncn2)ccc1C(=O)O [Ex 77]"
  TARGET_OF_ASSAY: "EP2 (Homo sapiens (Human), UniProt P43116)"
  VALUE_TYPE: "IC50"
  NUMERIC_READOUT: 25
- COMPOUND: "CCOc1cc(-c2cc(NCCc3ccc4ccccc4c3N)ncn2)sc1C(=O)O [Ex 71]"
  TARGET_OF_ASSAY: "EP2 (Homo sapiens (Human), UniProt P43116)"
  VALUE_TYPE: "IC50"
  NUMERIC_READOUT: 301
- COMPOUND: "CCOc1cc(-c2cc(NCCc3cc4c(cnn4C)cc3OC)ncn2)sc1C(=O)O [Ex 251]"
  TARGET_OF_ASSAY: "EP2 (Homo sapiens (Human), UniProt P43116)"
  VALUE_TYPE: "IC50"
  NUMERIC_READOUT: 132
- COMPOUND: "Cc1c(CCNc2cc(-c3ccc(-c4nc(O)no4)cc3)ncn2)ccc2ccccc12 [Ex 302]"
  TARGET_OF_ASSAY: "EP2 (Homo sapiens (Human), UniProt P43116)"
  VALUE_TYPE: "IC50"
  NUMERIC_READOUT: 384
- COMPOUND: "CCOc1cc(-c2cc(NCCc3cc4c(cc3OC)NCCC4)ncn2)sc1C(=O)O [Ex 173]"
  TARGET_OF_ASSAY: "EP2 (Homo sapiens (Human), UniProt P43116)"
  VALUE_TYPE: "IC50"
  NUMERIC_READOUT: 769
- COMPOUND: "COc1cc2c(cc1CCNc1cc(-c3ccc(C(=O)O)c(OC4CCC4)c3)ncn1)OCCO2 [Ex 187]"
  TARGET_OF_ASSAY: "EP2 (Homo sapiens (Human), UniProt P43116)"
  VALUE_TYPE: "IC50"
  NUMERIC_READOUT: 64
